# System: A/England/195/2009 (E195) influenza A virus
# experimental-protocol: microbe, parasite or virus in culture
# Assay type: cell-based
# condition-info: read-out: Virus culture IC50
measured-endpoint: IC50 (µM)
Enter your answer as a number in µM; do not include the unit.

Assay A/England/195/2009 (E195) influenza A virus, sample c1csc(-c2cc(CNC34CC5CC(CC(C5)C3)C4)no2)c1 [M2WJ332, reference compound] , IC50 read: 1.18

Values compiled from paper PMC7418971.
